Read-out: TIMP metallopeptidase inhibitor 1 (TIMP1), TIMP1 (gene 7076)
run_description: BSK_hDFCGF_TIMP1: BioMAP Diversity Plus: hDFCGF Assay for TIMP metallopeptidase inhibitor 1 (TIMP1) Biomarker Activity (AID 2283062)
condition_set: primary human foreskin fibroblasts; actives raise or lower the signal
Calls of active or inactive are those of the source. The calls were made as follows: active = hit-call score of the fitted dose curve at least 0.9, where 1 is the maximum; inactive = score below 0.9.
Please answer using one outcome listed in active, inactive

{"compound": "COC(=O)C(F)(F)C(F)(F)OC(F)(C(F)(F)F)C(F)(F)OC(F)=C(F)F (stereo not given)", "assigned_category": "inactive"}
{"compound": "ClC1=C(Cl)C2(Cl)C3C(Cl)C(Cl)CC3C1(Cl)C2(Cl)Cl (stereo not given)", "assigned_category": "active"}
{"compound": "CN(C)C(=O)Cl", "assigned_category": "inactive"}
{"compound": "CCNc1nc(Cl)nc(NC(C)(C)C)n1", "assigned_category": "inactive"}
{"compound": "c1ccc(OP(Oc2ccccc2)Oc2ccccc2)cc1", "assigned_category": "inactive"}

// param item: `CCOc1ccc(C(C)(C)COCc2cccc(Oc3ccccc3)c2)cc1` ; yields the recorded call
inactive

State the result this test recorded for `COCCOCCO` .
inactive

Outcome logged for CCCCC(CC)COP(=O)(Oc1ccccc1)Oc1ccccc1 (stereo not given) in this assay:
active

# fetch the recorded call for `CCOP(=S)(OCC)SCSc1ccc(Cl)cc1` here
inactive

What was the test verdict on `Cc1ccc2c(c1N)C(=O)c1ccccc1C2=O` ?
inactive

What did the test return for CC(O)C(F)(F)C(F)(F)F (stereo not given) ?
inactive

Which outcome did this test record for the compound `c1ccc2c(c1)Nc1ccccc1S2` ?
inactive

Each compound tested received a call. Report the one for `c1ccc2c(c1)sc1ccccc12` .
inactive

Hi, sorry to bother you, what did the test record for `ClC(Cl)c1ccccc1` ?
inactive

Hi, sorry to bother you, what did the test record for `O=C(O)C(F)(F)OC(F)(F)C(F)(F)OC(F)(F)C(=O)O` ?
inactive

Per the assay record, what outcome was assigned to `c1cc2c3c(cccc3c1)CC2` ?
inactive

Returns: the outcome recorded for `COP(=O)(O)OC` in this assay.
inactive

Answer briefly: the call reported for O=P1(N(CCCl)CCCl)NCCCO1 (stereo not given) in this assay.
inactive

Which result was noted for this compound in the test: `N#Cc1cc([N+](=O)[O-])ccc1N`
inactive

Look up the recorded call for `O=C(O)C(F)(F)OC(F)(F)C(F)(F)OC(F)(F)F` in this test.
inactive

Dear all, I need the recorded test outcome for `COP(=O)(CCC(=O)NCO)OC` , thank you.
inactive
